# assay overview: activity coefficient (dimensionless); of the first substance listed, at infinite dilution; xn = mol fraction of the nth substance listed
# assay setup: 343.65 K; Liquid; Chromatography; x1 = 0
Note: every record was labeled by where its activity coefficient sits among lower range = under 2, middle range = from 2 up to 10, upper range = 10 and over

Observe how each entry below is paired with its result.
CC(C)O [propan-2-ol] + CCCC[N+](C)(C)C.O=S(=O)([N-]S(=O)(=O)C(F)(F)F)C(F)(F)F	lower range
CCCCO [butan-1-ol] + CCCC[N+](C)(C)C.O=S(=O)([N-]S(=O)(=O)C(F)(F)F)C(F)(F)F	middle range
CCCCCC(=O)OC [methyl hexanoate] + CCCC[N+](C)(C)C.O=S(=O)([N-]S(=O)(=O)C(F)(F)F)C(F)(F)F	middle range
C1=CCCCC1 [cyclohexene] + CCCC[N+](C)(C)C.O=S(=O)([N-]S(=O)(=O)C(F)(F)F)C(F)(F)F	middle range
CCCCCCCCCC [decane] + CCCC[N+](C)(C)C.O=S(=O)([N-]S(=O)(=O)C(F)(F)F)C(F)(F)F	upper range

**Q:** Entry CCCCCCO [hexan-1-ol] + CCCC[N+](C)(C)C.O=S(=O)([N-]S(=O)(=O)C(F)(F)F)C(F)(F)F belongs to which category?
**A:** middle range

**Q:** Queued: C=CCCCCCCC [1-nonene] + CCCC[N+](C)(C)C.O=S(=O)([N-]S(=O)(=O)C(F)(F)F)C(F)(F)F
**A:** upper range

**Q:** Queued: C=CCCCC [hex-1-ene] + CCCC[N+](C)(C)C.O=S(=O)([N-]S(=O)(=O)C(F)(F)F)C(F)(F)F
**A:** middle range

**Q:** Queued: C=CCCCCCCCCC [1-undecene] + CCCC[N+](C)(C)C.O=S(=O)([N-]S(=O)(=O)C(F)(F)F)C(F)(F)F
**A:** upper range

**Q:** Queued: CO [methanol] + CCCC[N+](C)(C)C.O=S(=O)([N-]S(=O)(=O)C(F)(F)F)C(F)(F)F
**A:** lower range

**Q:** Queued: CCCc1ccccc1 [propylbenzene] + CCCC[N+](C)(C)C.O=S(=O)([N-]S(=O)(=O)C(F)(F)F)C(F)(F)F
**A:** middle range

**Q:** Queued: CC(C)(C)O [2-methylpropan-2-ol] + CCCC[N+](C)(C)C.O=S(=O)([N-]S(=O)(=O)C(F)(F)F)C(F)(F)F
**A:** lower range

**Q:** Queued: CCCCCCCCC [nonane] + CCCC[N+](C)(C)C.O=S(=O)([N-]S(=O)(=O)C(F)(F)F)C(F)(F)F
**A:** upper range

**Q:** Queued: CCC(C)O (configuration not stated) [butan-2-ol] + CCCC[N+](C)(C)C.O=S(=O)([N-]S(=O)(=O)C(F)(F)F)C(F)(F)F
**A:** lower range

**Q:** Queued: C=CCCCCCC [oct-1-ene] + CCCC[N+](C)(C)C.O=S(=O)([N-]S(=O)(=O)C(F)(F)F)C(F)(F)F
**A:** upper range

**Q:** Queued: CC(C)CO [2-methyl-1-propanol] + CCCC[N+](C)(C)C.O=S(=O)([N-]S(=O)(=O)C(F)(F)F)C(F)(F)F
**A:** middle range

**Q:** Queued: C=CCCCCC [1-heptene] + CCCC[N+](C)(C)C.O=S(=O)([N-]S(=O)(=O)C(F)(F)F)C(F)(F)F
**A:** upper range

**Q:** Queued: OC1CCCCC1 [cyclohexanol] + CCCC[N+](C)(C)C.O=S(=O)([N-]S(=O)(=O)C(F)(F)F)C(F)(F)F
**A:** middle range

**Q:** Queued: CCC(C)(C)O [2-methylbutan-2-ol] + CCCC[N+](C)(C)C.O=S(=O)([N-]S(=O)(=O)C(F)(F)F)C(F)(F)F
**A:** lower range

**Q:** Queued: CCCCc1ccccc1 [butylbenzene] + CCCC[N+](C)(C)C.O=S(=O)([N-]S(=O)(=O)C(F)(F)F)C(F)(F)F
**A:** middle range

**Q:** Queued: C=CCCCCCCCC [1-decene] + CCCC[N+](C)(C)C.O=S(=O)([N-]S(=O)(=O)C(F)(F)F)C(F)(F)F
**A:** upper range

**Q:** Queued: CCCCCCCCCCCC [dodecane] + CCCC[N+](C)(C)C.O=S(=O)([N-]S(=O)(=O)C(F)(F)F)C(F)(F)F
**A:** upper range
